Test system: Escherichia coli JR66/W677
test_description: MIC, standard serial dilution method
Format: cell-based
experimental_conditions: Escherichia coli, JR66/W677, pH 7; read-out: MIC
Method: Antibacterial activities of each of the abovementioned compounds of the general formula (I) according to this invention were determined by measuring their minimum growth inhibitory concentrations (MIC, mcg/ml) against various bacteria in accordance with a standard serial dilution method. The pH condition of the incubation medium where the MIC data were measured was set at pH 7, unless otherwise specifically indicated. […]
Can you tell me MIC for the items I'm about to list?
Numbers only, in µg/mL.

{"columns": ["item_smiles", "MIC, µg/mL"],
 "data": [
  ["NC[C@@H](F)[C@H](O)C(=O)N[C@@H]1C[C@H](N)[C@@H](O[C@H]2O[C@H](CN)[C@@H](O)C[C@H]2N)[C@H](O)[C@H]1O[C@H]1O[C@H](CO)[C@@H](O)[C@H](N)[C@H]1O", 0.39]
]}

Query molecule follows.
Entry `NC[C@@H](F)[C@H](O)C(=O)N[C@@H]1C[C@H](N)[C@@H](O[C@H]2O[C@H](CN)[C@@H](O)C[C@H]2N)[C@H](F)[C@H]1O[C@H]1O[C@H](CO)[C@@H](O)[C@H](N)[C@H]1O` , tested on Escherichia coli JR66/W677, has a reported MIC of 0.39
